Where do the numbers come from? From PubChem BioAssay (NCI).

# Tested on: OVCAR-4 ovarian
# Test details: NCI-60 one-dose screen, 48 h (100 = growth as untreated, 0 = no growth, -100 = all killed)
# Test context: 10 µM unless noted
This is part of a sample that, as a whole, favours compounds with a hit. Of some 83,000 tested, about 20% had one in any assay.
Observed property: growth (%)

>>> reading("CCOC(=O)c1c(NC(=O)c2cccc(C(F)(F)F)c2)sc2c3c(ccc12)OCN(C)C3")
-44.2
>>> reading("c1ccc(-c2cn3c(-c4c[nH]c5ccccc45)csc3n2)cc1")
61.9
>>> reading("N#Cc1c(-c2cccs2)c(C#N)c(=O)n(Cc2nc3ccccc3[nH]2)c1N")
99.6
>>> reading("Cc1csc(/N=C(N)/N=C(\\N)c2cccc(C#N)c2)n1")
97.2
>>> reading("O=C(CCCCCCN1CC(=O)N2[C@@H](C3CC3)c3[nH]c4ccccc4c3C[C@H]2C1=O)NO")
97.6
>>> reading("C#CCOc1ccccc1C(OC(=O)c1ccccc1)C(=O)NC(C)(C)C(C)(C)C (configuration not stated)")
85.9
>>> reading("O=C1C(N2CCN(c3ccccc3)CC2)=C(Cl)C(=O)c2ncccc21")
66

----------
# Tested on: HS 578T breast
# Test details: NCI-60 one-dose screen, 48 h
# Test context: 10 µM unless noted
This is part of a sample that, as a whole, favours compounds with a hit. Of some 83,000 tested, about 20% had one in any assay. Calls of active or inactive are those of the source. The calls were made as follows: active = growth percent below 10; inactive = the rest.
Labels: active, inactive

>>> label_value("O=C(COc1ccc(/C=C2\\C(=O)Nc3ccc(Cl)cc32)cc1)Nc1ccc(Cl)cc1")
"inactive"
>>> label_value("CC(=O)Nc1ccccc1-c1nc2ccccc2s1")
"inactive"
>>> label_value("CC[C@]12C=CCN3CC[C@@]4(c5ccc(OC)cc5N(C)[C@H]4[C@@](O)(C(=O)OC)[C@@H]1OC(=O)CCN1CCc4ccccc4C1)[C@@H]32")
"inactive"
>>> label_value("COc1ccc(C2CC(c3cccc(OCCCCOc4cccc(C5=NN(C(C)=O)C(c6ccc(OC)cc6)C5)c4)c3)=NN2C(C)=O)cc1 (centres undefined)")
"inactive"
>>> label_value("CC(Nc1c(C#N)cnc2ccc(-c3cncc(O)c3)cc12)c1ccccc1 (centres undefined)")
"active"
>>> label_value("CC(C)NC(=O)c1cc(-c2ccc(NC(=O)Nc3ccc(F)c(C(F)(F)F)c3)cc2)nc2cccnc12")
"inactive"
>>> label_value("CCOC(=O)C1=C(C)NC(C)=C(C(=O)OC(C)C)C1c1cccc(C#N)c1 (centres undefined)")
"inactive"
>>> label_value("CN1CCN(Cc2ccc(NC(=O)c3cncc(C#Cc4cnc5ccc(OCCCS(C)(=O)=O)nn45)c3)cc2C(F)(F)F)CC1")
"active"
>>> label_value("O=C(CSc1nc2ccccc2c(=O)n1-c1ccc(S(=O)(=O)Nc2ccc(Cl)nn2)cc1)Nc1ccc(S(=O)(=O)Nc2ccc(Cl)nn2)cc1")
"inactive"
>>> label_value("COc1cc2oc(-c3cccc(NC(=O)[C@@H](N)C(C)C)c3)cc(=O)c2c(OC)c1OC")
"inactive"
>>> label_value("O=C(CSc1nc2ccccc2c(=O)n1-c1ccccc1)Nc1ccc(S(=O)(=O)Nc2nccs2)cc1")
"inactive"
>>> label_value("C#Cc1cc(C(=O)Nc2ccc(CNCCN3CCOCC3)c(C(F)(F)F)c2)ccc1C")
"inactive"
>>> label_value("CN1CCN(Cc2ccc(NC(=O)c3cncc(C#Cc4cnc(N)nc4)c3)cc2C(F)(F)F)CC1")
"active"
>>> label_value("CN1CCN(c2ccc(Nc3nc(NCCNC(=O)c4ccc(F)cc4)c4sccc4n3)cc2)CC1")
"inactive"

----------
# System: HOP-62 NSCLC
# Test details: NCI-60 one-dose screen, 48 h (100 = growth as untreated, 0 = no growth, -100 = all killed)
# Test context: 10 µM unless noted
About 83,000 compounds went through this panel and 20% of them were active in at least one assay; those are over-represented in the sample as a whole.
Observed property: growth (%)

>>> reading("C#CCOc1ccccc1/C=N/Nc1nc(-c2ccc(Cl)cc2)cs1")
96
>>> reading("O=C(CCCCCCN1CC(=O)N2[C@@H](C3CC3)c3[nH]c4ccccc4c3C[C@H]2C1=O)NO")
69.6
>>> reading("CC(=O)OC[C@@]12Oc3c(cccc3-c3ccc(O)c4c3O[C@]3(COC(C)=O)C(=C4O)C(=O)C[C@H](C)[C@@H]3OC(C)=O)C(O)=C1C(=O)C[C@H](C)[C@@H]2OC(C)=O")
8.14
>>> reading("Cn1c(SCC(=O)c2ccc(F)cc2)nc2ccccc2c1=O")
93.6
>>> reading("CN1c2ccccc2Sc2cc(/C=N/Nc3ccnc4cc(Cl)ccc34)ccc21")
96.6
>>> reading("CN1CCC[C@]2(C)[C@H]3CC[C@@H]4[C@@H]5[C@H]6OC[C@@]5(CCC6(C)C)CC[C@@]4(C)[C@]3(C)CC[C@H]2C1(C)C")
94.2
>>> reading("CC[C@]12CC(C(=O)OC)=C3Nc4ccccc4[C@@]34CCN(C14)[C@@H]1c3cc4c(cc3O[C@@H]1[C@H]2O)NC1=C(C(=O)OC)C[C@@]2(CC)C3N(CC[C@@]143)C[C@H]1O[C@H]12 (some centres not stated)")
29
>>> reading("Oc1[nH]c2ccc(Cl)cc2c1N=Nc1nc(N=Nc2c(O)[nH]c3ccc(Cl)cc23)nc(N2CCOCC2)n1")
37.6
>>> reading("Cc1[nH]c(C(=O)Nc2ccc(S(=O)(=O)N3CCCCC3)cc2OCCOCCOCCOCCOCCOCCOCCOCCOCCOc2cc(S(=O)(=O)N3CCCCC3)ccc2NC(=O)c2[nH]c(C)c3c2CCCCC3=O)c2c1C(=O)CCCC2")
12.5
>>> reading("CN1CCN(Cc2ccc(NC(=O)c3cncc(C#Cc4cnc5ccc(OCC6COC6)nn45)c3)cc2C(F)(F)F)CC1")
-72.3
>>> reading("Cc1ncn(-c2ccc(/C=N/Nc3ccnc4cc(Cl)ccc34)cc2)c1C")
102
>>> reading("CC1(C)CC[C@]23CC[C@]4(C)[C@H](CC[C@@H]5[C@@]6(C)CC[C@H](NCO)C(C)(C)[C@@H]6CC[C@]54C)[C@H]2[C@H]1OC3")
79.8
>>> reading("COc1cc(OC)cc(-c2cc(-c3c[nH]c4ccccc34)nc(-c3c[nH]c4ccccc34)c2C#N)c1")
96.3
>>> reading("COc1cccc2c1C=CC1(O2)Oc2cccc(OC)c2C=C1C (configuration not stated)")
55.9
>>> reading("CC(=O)N(O)CCCCCNC(=O)CCC(=O)N(O)CCCCCNC(=O)CCC(=O)N(O)CCCCCN(CCCCCCCCCC[P+](c1ccccc1)(c1ccccc1)c1ccccc1)CCCCCCCCCC[P+](c1ccccc1)(c1ccccc1)c1ccccc1")
7.35
>>> reading("COc1ccc(NC(=O)CCCCCCNC(=O)C(O)(O)C(F)(F)F)cc1")
28.3
>>> reading("O=C(CCl)Nc1ccc(NC(=O)c2cc(Cl)ccc2O)c(Cl)c1")
101

----------
# Tested on: M14 melanoma
# Test details: NCI-60 one-dose screen, 48 h (100 = growth as untreated, 0 = no growth, -100 = all killed)
# Test context: 10 µM unless noted
The panel holds about 83,000 compounds, 20% with a hit somewhere; the sample as a whole holds those more often. Active and inactive are the calls of the source. Rule for the calls: active = growth percent below 10; inactive = the rest.
Here, each record is paired with measured growth data.
Observed property: growth

>>> reading("CC1=C(C)C(=O)C(Nc2cccc(C)c2)=C(Br)C1=O")
"104% (inactive)"
>>> reading("Cn1c(SCC(=O)c2ccc(Br)cc2)nc2ccccc2c1=O")
"96.6% (inactive)"
>>> reading("Cc1ccc(S(=O)(=O)NCCCNc2nccc(-c3[nH]c(-c4ccccc4)nc3-c3ccc(F)c(O)c3)n2)cc1")
"22.9% (inactive)"

----------
# Test system: U251 CNS
# Test details: NCI-60 one-dose screen, 48 h (100 = growth as untreated, 0 = no growth, -100 = all killed)
# Test context: 10 µM unless noted
Compounds without any hit were thinned out: in the full panel of roughly 83,000, 20% have a hit.
YES means recorded growth is 20% or above; NO means it is below 20%.

>>> label_value("CCN(CC)c1ccc(/C=N/NC(=O)c2ccc(NS(C)(=O)=O)cc2)c(O)c1")
"YES"
>>> label_value("O=C(Nc1ccc(Cl)c(C(F)(F)F)c1)Nc1ccc2c(ccn2C(=O)c2cccc(F)c2)c1")
"YES"
>>> label_value("CCOC(=O)c1c(NC(=O)c2ccc(C(F)(F)F)cc2)sc2c3c(ccc12)OCN(C)C3")
"NO"
>>> label_value("CC(=O)N1N=C(c2cc3ccccc3oc2=O)CC1c1cn(-c2ccccc2)nc1-c1ccc(C)cc1 (centres undefined)")
"YES"
>>> label_value("COc1ccc(C(=O)c2c(N)c(C#N)cn2-c2ccc(Cl)cc2Cl)cc1")
"YES"
>>> label_value("O=C(/C=C/c1cc(Cl)ccc1Cl)Nc1ncc(Cc2ccc(Cl)cc2)s1")
"NO"
>>> label_value("NC1CC2(CCN(c3cnc(C(=O)Nc4cc(F)cc5cccnc45)cn3)CC2)C1")
"YES"
>>> label_value("CCCCCC[n+]1ccc(SCC(=O)n2ccc3ccccc32)c2ccccc21")
"YES"
>>> label_value("O=[N+]([O-])c1ccc(NC(=S)NNC(=S)Nc2ccc(F)cc2)cc1")
"YES"
>>> label_value("Cn1ncc2c(C(=O)c3ccc(F)cc3)nc(C(C)(C)C)nc21")
"YES"
>>> label_value("CN1CCN(c2ccc(Nc3nc(NCCNS(=O)(=O)c4ccc5ccccc5c4)c4sccc4n3)cc2)CC1")
"NO"
>>> label_value("Brc1cccc(-c2cc(-c3cnc4c(c3)OCCO4)n[nH]2)c1")
"YES"
>>> label_value("CN(C)CCNc1ccc2ncc(C#Cc3cncc(C(=O)Nc4ccc(CN5CCN(C)CC5)c(C(F)(F)F)c4)c3)n2n1")
"YES"
>>> label_value("Cn1cc(C2=C(c3coc4cc(Br)ccc34)C(=O)NC2=O)c2ccccc21")
"YES"
>>> label_value("COc1ccc([C@H]2C(=O)N(c3cc(OC)c(OC)c(OC)c3)[C@@H]2c2ccc(OC)c(O)c2)cc1")
"NO"
>>> label_value("C#Cc1nc(/C=C\\CCCCCCC(=O)NO)cs1")
"YES"
>>> label_value("CCCCN1C(=O)/C(=c2\\sc3n(c2=O)C2C(NN=3)N(CC)C(=O)N2CC)c2cc(C)ccc21 (centres undefined)")
"YES"
>>> label_value("CC(=O)OC[C@@]12Oc3c(cccc3-c3ccc(O)c4c3O[C@]3(COC(C)=O)C(=C4O)C(=O)C[C@H](C)[C@@H]3OC(C)=O)C(O)=C1C(=O)C[C@H](C)[C@@H]2OC(C)=O")
"NO"
>>> label_value("COc1ccc(/C=N/NC(=O)c2c(N)nn(C)c2Nc2ccccc2)cc1")
"YES"
>>> label_value("CN1CCN(Cc2ccc(/C=N/Nc3ccnc4cc(Cl)ccc34)cc2)CC1")
"YES"
>>> label_value("CNC(=O)c1cc(-n2ccc3cc(NC(=O)Nc4ccc(N5CCN(C)CC5)c(C(F)(F)F)c4)ccc32)ccn1")
"YES"
>>> label_value("COC(=O)c1cccc(NC2=C(Cl)C(=O)C(C)=C(C)C2=O)c1")
"YES"
>>> label_value("Cc1ccc(-c2cc3nc(C(Cl)Cl)nc(-c4ccc(S(=O)(=O)N(C)C)cc4)n3n2)cc1")
"YES"
